The reported measurements were obtained from the supplement of paper PMC6755084.

B1: F1*; the commonest letter at each place (parent)
chain: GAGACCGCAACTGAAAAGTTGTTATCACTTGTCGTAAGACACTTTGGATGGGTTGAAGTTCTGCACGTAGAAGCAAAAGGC

Variants of: B1
assay-protocol: fraction ligated after 30 min (ligated reads / total reads); higher = more ligase activity
condition-description: with F1*sub RNA substrate (template-directed ligation), 42 °C
# if value of fraction ligated reaches 0.7, tag Yes; if it stays below, tag No

Examples with answers:
| seq | label-value |
| --- | --- |
| GAGACCGCAACTGAAAAGTTGTTAACACTTGTAGTAAGACACTTTGGATGGGTTGAAGTTCTGCACGTAGAAGCAAAAGGC [T25A C33A] | No |
| GAGACCGCAACTGAAAAGTTGTTATCACTTGTCGTAACACACTTTGGATAGGTTGAAGTTCTGCACGTAGAAGCAAAAGGC [G38C G50A] | No |
| GAGACCGCAACTGAAAAGTTGTTCTCACTTGTCGTAAGACACTTTGGAGGGGTTGAAGTTCTGCACGTAGAAGCAAAAGGC [A24C T49G] | Yes |

Data request: Confirm if fraction ligated reported for the variant GAGACCGCAACTGAAAAGTTGTTATCACTTGTCATAAGACACTTTGCATGGGTTGAAGTTCTGCACGTAGAAGCAAAAGGC [G34A G47C] is 0.7 or above.
Data returned: No

Data request: For this variant, is measured fraction ligated 0.7 or higher? GAGACCGCAACTGAAAAGTTGTTATCACATGTCGTAAGACACTTCGGATGGGTTGAAGTTCTGCACGTAGAAGCAAAAGGC [T29A T45C]
Data returned: No

Data request: Exam item: decide whether the reported fraction ligated for GAGACCGCAACTGAAAAGTTGTGATCACTTGTCGTAAGACACTTAGGATGGGTTGAAGTTCTGCACGTAGAAGCAAAAGGC [T23G T45A] is at least 0.7.
Data returned: Yes

Data request: Kindly determine if fraction ligated recorded for GAGACCGCAACTGAAAAGTTGTTATGACTTGTCGTAAGACAATTTGGATGGGTTGAAGTTCTGCACGTAGAAGCAAAAGGC [C26G C42A] is above or exactly 0.7.
Data returned: Yes

Data request: Threshold query (fraction ligated >= 0.7) on GAGACCGCAACTGAAAAGTTGTTATCACTTGTCGTAAGACAAATTGGATGGGTTGAAGTTCTGCACGTAGAAGCAAAAGGC [C42A T43A]
Data returned: Yes

Data request: Does GAGACCGCAACTGAAAAGTTGTTATAACTTGCCGTAAGACACTTTGGATGGGTTGAAGTTCTGCACGTAGAAGCAAAAGGC [C26A T32C] have a reported fraction ligated of at least 0.7?
Data returned: No

Data request: Does GAGACCGCAACTGAAAAGTTGTTATAACTTGTCGTAAGACACGTTGGATGGGTTGAAGTTCTGCACGTAGAAGCAAAAGGC [C26A T43G] have a reported fraction ligated of at least 0.7?
Data returned: No
